- system_tested: histamine H4 receptor (Homo sapiens, UniProt Q9H3N8)
- Sequence (Q9H3N8 whole entry): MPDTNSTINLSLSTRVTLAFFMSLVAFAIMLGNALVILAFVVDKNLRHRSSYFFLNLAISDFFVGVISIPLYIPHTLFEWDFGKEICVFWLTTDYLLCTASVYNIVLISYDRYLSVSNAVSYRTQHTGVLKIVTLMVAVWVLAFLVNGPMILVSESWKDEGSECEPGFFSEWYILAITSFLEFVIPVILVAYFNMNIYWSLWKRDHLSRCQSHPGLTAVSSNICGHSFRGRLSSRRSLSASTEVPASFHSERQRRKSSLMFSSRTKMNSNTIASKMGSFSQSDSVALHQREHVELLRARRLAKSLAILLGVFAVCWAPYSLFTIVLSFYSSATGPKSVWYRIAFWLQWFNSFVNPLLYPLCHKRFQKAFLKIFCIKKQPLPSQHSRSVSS
- protocol_text: H4 Membrane Binding Assay (3H-Histamine displacement)
- measurement_context: membranes of recombinant HEK293SFM cells, 10 nM 3H-Histamine, 1.5 hr at room temperature
readout: IC50
A complete answer gives the number and then names the unit.

Solved entries:
[
  {
    "compound": "CN1CCN(c2cc(-c3ccc4c(c3)CN(C(=O)OC3CCCC3)CC4)nc(N)n2)CC1 [Example 7]",
    "assay_result": "43.3 nM"
  },
  {
    "compound": "CN1CCN(c2nc(N)nc3cc(C(=O)NCc4cccc(OCc5cccc6nsnc56)c4)ccc23)CC1 [Example 195]",
    "assay_result": "3.4 nM"
  },
  {
    "compound": "COc1ccc(C#N)c(Oc2cccc(CNC(=O)c3ccc4c(N5CCN(C)CC5)nc(N)nc4c3)c2)c1 [Example 180]",
    "assay_result": "25 nM"
  }
]

Now let's try a different one.
Suppose we examine the compound CN1CCN(c2nc(N)nc3cc(C(=O)N[C@@H](Cc4ccc(OC(=O)Nc5cccc(Cl)c5)cc4)C(=O)N(C)C)ccc23)CC1 [Example 165] ; what IC50 value has been reported?
16 nM
